Listing: koff of selected binders
target: T1, c-erbB-2 ECD with a Ser-Gly-His6 C-terminal fusion (UniProt P04626 23-652); assay: SPR BIAcore
T1 construct: extracellular domain; Expressed from CHO cells, IMAC purified; coupled to a CM5 chip, coated on plates, or biotinylated with NHS-LC-biotin; also called c-erbB-2 extracellular domain; biotinylated c-erbB-2 ECD
Measured quantity: koff

Binder | Measured quantity | Reading
C6ML3-3 (scFv) scFv: QVQLLQSGAELKKPGESLKISCKGSGYSFTSYWIAWVRQMPGKGLEYMGLIYPGDSDTKYSPSFQGQVTISVDKSVSTAYLQWSSLKPSDSAVYFCARHDVGYCSSSNCAKWPEYFQHWGQGTLVTVSSGGGGSGGGGSGGGGSQSVLTQPPSVSAAPGQKVTISCSGSSSNIGNNYVSWYQQLPGTAPKLLIYGHTNRPAGVPDRFSGSKSGTSASLAISGFRSEDEADYYCATWDYALSGWVFGGGTKLTVLG | koff | 0.002 s⁻¹
C6ML3-14 (scFv) scFv: QVQLLQSGAELKKPGESLKISCKGSGYSFTSYWIAWVRQMPGKGLEYMGLIYPGDSDTKYSPSFQGQVTISVDKSVSTAYLQWSSLKPSDSAVYFCARHDVGYCSSSNCAKWPEYFQHWGQGTLVTVSSGGGGSGGGGSGGGGSQSVLTQPPSVSAAPGQKVTISCSGSSSNIGNNYVSWYQQLPGTAPKLLIYGHTNRPAGVPDRFSGSKSGTSASLAISGFRSEDEADYYCAAWDDPLWGWVFGGGTKLTVLG | koff | 0.00077 s⁻¹
C6ML3-2 (scFv) scFv: QVQLLQSGAELKKPGESLKISCKGSGYSFTSYWIAWVRQMPGKGLEYMGLIYPGDSDTKYSPSFQGQVTISVDKSVSTAYLQWSSLKPSDSAVYFCARHDVGYCSSSNCAKWPEYFQHWGQGTLVTVSSGGGGSGGGGSGGGGSQSVLTQPPSVSAAPGQKVTISCSGSSSNIGNNYVSWYQQLPGTAPKLLIYGHTNRPAGVPDRFSGSKSGTSASLAISGFRSEDEADYYCAAWDHSLSGWVFGGGTKLTVLG | koff | 0.002 s⁻¹
